Cited source: paper PMC12087695

assay: clinical; conditions: human, in vivo, t1/2, geometric mean (geometric CV), phase V: gemfibrozil 600 mg b.i.d. 3 days pretreatment + full cocktail
Tick 1 if half-life is 3 h or greater. Tick 0 if half-life is less than 3 h.

molecule: CN1CC[C@@]23CCCC[C@@H]2[C@@H]1Cc1ccc(O)cc13 [Dextrorphan, dextrorphan]
qualitative_label: 0
--
molecule: CC(C(=O)O)c1ccc(-c2ccccc2)c(F)c1 (centres unmarked) [Flurbiprofen, flurbiprofen]
qualitative_label: 1
--
molecule: Cc1ncc2n1-c1ccc(Cl)cc1C(c1ccccc1F)=NC2 [Midazolam, midazolam]
qualitative_label: 0

Query string: half-life >= 3 h for COc1ccc2c(c1)[C@]13CCCC[C@@H]1[C@H](C2)N(C)CC3 [Dextromethorphan, dextromethorphan] ?
Result string: 1

Query string: Note, next up: CCOc1cc(CC(=O)N[C@@H](CC(C)C)c2ccccc2N2CCCCC2)ccc1C(=O)O [Repaglinide, repaglinide]
Result string: 1

---

experiment: Plasma pharmacokinetics of cocktail index drugs and their metabolites, five-phase crossover trial; conditions: human, plasma, oral, AUC0-23h, geometric mean (geometric CV), phase II: Geneva cocktail
observable: AUC(0-t) (ng·h/mL)
Write the value in ng·h/mL as a bare number.

Query string: // query AUC(0-t) value for entry "COc1ccc2nc(S(=O)(=O)Cc3ncc(C)c(OC)c3C)[nH]c2c1"
Result string: 113

---

assay: Plasma pharmacokinetics of cocktail index drugs and their metabolites, five-phase crossover trial; details: phase V: gemfibrozil 600 mg b.i.d. 3 days pretreatment + full cocktail
observable: t1/2, geometric mean (geometric CV)

compound: C[C@H]1NC(C)(C)CO[C@]1(O)c1cccc(Cl)c1 [OH-bupropion, hydroxybupropion]
observable: t1/2, geometric mean (geometric CV)
test_value: 29.4 (51.7%) h
--
compound: COc1ccc2nc([S+]([O-])Cc3ncc(CO)c(OC)c3C)[nH]c2c1 (stereo not shown) [5’-OH-omeprazole, 5′‐hydroxyomeprazole]
observable: t1/2, geometric mean (geometric CV)
test_value: 1.34 (32.6%) h
--
compound: COc1ccc2[nH]c([S+]([O-])Cc3ncc(C)c(OC)c3C)nc2c1 (stereo not shown) [Omeprazole, omeprazole]
observable: t1/2, geometric mean (geometric CV)
test_value: 0.78 (59.9%) h

Attention now shifts to the item below.
Query string: Which t1/2, geometric mean (geometric CV) is listed for OCc1ncc2n1-c1ccc(Cl)cc1C(c1ccccc1F)=NC2 [1’-OH-midazolam, 1′‐hydroxymidazolam] ?
Result string: 1.85 (28.8%) h

---

test: Plasma pharmacokinetics of cocktail index drugs and their metabolites, five-phase crossover trial; details: human, plasma, oral, Tmax, median (range), phase II: Geneva cocktail
observable: Tmax (h)
Return type: number; implicit unit h.

molecule: COc1ccc2nc(S(=O)(=O)Cc3ncc(C)c(OC)c3C)[nH]c2c1 [Omeprazole sulfone, omeprazole sulfone]
unit_descriptor: h
Tmax: 1.5

Now for a further molecule.
Query string: Any idea what Tmax was measured for Cn1c(=O)[nH]c2ncn(C)c2c1=O [Paraxanthine, paraxanthine] ?
Result string: 4

---

experiment: Plasma pharmacokinetics of cocktail index drugs and their metabolites, five-phase crossover trial; conditions: human, plasma, oral, t1/2, geometric mean (geometric CV), phase II: Geneva cocktail;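 also: parameters derived from plasma drug levels quantified by LC–MS with internal standards after acetonitrile protein precipitation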
Listed here: items and their measured half-life.
Give your result as the value with the unit written after it.

Previously resolved entries follow.
smiles_notation: Cn1c(=O)[nH]c2ncn(C)c2c1=O
test_value: 11 h
//
smiles_notation: COc1ccc2nc(S(=O)(=O)Cc3ncc(C)c(OC)c3C)[nH]c2c1
test_value: 1.9 h

// below: half-life requested for another compound
Query string: Requested read-out: half-life. Entry: "Cn1c(=O)c2c(ncn2C)n(C)c1=O"
Result string: 4.65 h
